Listed here are molecules together with their documented AUC.
assay: Pharmacokinetics in rats with cerebral microdialysis; assay type: in vivo; conditions: plasma (free concentration); free concentration, after iv IMM-H004 citrate 10 mg/kg, rat; read-out: AUCplasma
Respond numerically; units are µM·h and should not be typed.

| Molecule | AUC / µM·h |
| --- | --- |
| COc1cc(O)cc2oc(=O)c(N3CCN(C)CC3)c(C)c12 [IMM-H004] | 0.141 |

From here, focus on the item given below.
-- ask Quick check: AUC of COc1cc(OC2OC(C(=O)O)C(O)C(O)C2O)cc2oc(=O)c(N3CCN(C)CC3)c(C)c12 (centres unmarked) [IMM-H004G] ?
-- reply 16.4
